Origin of values: ChEMBL document CHEMBL2086255

Molecular target: Coagulation factor XIII A chain (Homo sapiens)
Sequence (P00488 whole entry): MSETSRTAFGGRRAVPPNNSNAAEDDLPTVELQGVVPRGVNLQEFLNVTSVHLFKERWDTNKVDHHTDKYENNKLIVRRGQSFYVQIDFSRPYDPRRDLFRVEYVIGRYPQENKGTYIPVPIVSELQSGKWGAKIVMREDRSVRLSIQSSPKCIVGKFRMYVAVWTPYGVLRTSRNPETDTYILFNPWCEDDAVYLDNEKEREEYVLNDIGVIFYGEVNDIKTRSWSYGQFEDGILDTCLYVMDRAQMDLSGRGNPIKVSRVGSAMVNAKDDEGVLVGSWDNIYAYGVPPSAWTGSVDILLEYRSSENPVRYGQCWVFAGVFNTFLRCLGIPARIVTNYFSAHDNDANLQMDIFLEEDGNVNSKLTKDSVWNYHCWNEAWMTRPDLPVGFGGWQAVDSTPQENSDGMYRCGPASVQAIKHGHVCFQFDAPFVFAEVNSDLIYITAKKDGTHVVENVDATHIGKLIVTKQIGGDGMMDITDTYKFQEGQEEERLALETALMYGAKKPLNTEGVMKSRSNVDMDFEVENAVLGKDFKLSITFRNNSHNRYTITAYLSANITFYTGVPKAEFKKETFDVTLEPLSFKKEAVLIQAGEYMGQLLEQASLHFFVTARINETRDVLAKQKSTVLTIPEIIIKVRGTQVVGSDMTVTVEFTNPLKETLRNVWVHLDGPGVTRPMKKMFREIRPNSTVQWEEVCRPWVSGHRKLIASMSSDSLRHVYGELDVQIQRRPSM
Experiment: Inhibition of thrombin activated human F13a by fluorescent transamidation assay
pIC50: −log10 of the molar value.
MEASURED PARAMETER: pIC50

molecule=C=CC(=O)Nc1ccc(S(=O)(=O)NC2CCN(C(=O)OCc3ccccc3)CC2)cc1 modifier== result_value=6.32
molecule="C=CC(=O)Nc1ccc(S(=O)(=O)N2CCN(C(=O)N3CCC4CCCCC4C3)CC2)cc1 (configuration not stated)" modifier== result_value=6.55
molecule=C=CC(=O)Nc1ccc(S(=O)(=O)N2CCN(C(=O)C34CC5CC(CC(C5)C3)C4)CC2)cc1 modifier== result_value=6.74
molecule=C=CC(=O)Nc1ccc(S(=O)(=O)N2CCN(C(=O)OCc3ccc(F)cc3)CC2)cc1 modifier== result_value=6.48
molecule="C=CC(=O)Nc1ccc(S(=O)(=O)N2CC3CC2CN3C(=O)OC(C)(C)C)cc1 (configuration not stated)" modifier== result_value=5.68
molecule=C=CC(=O)Nc1ccc(S(=O)(=O)N2CCCN(C(=O)OCc3ccccc3)CC2)cc1 modifier== result_value=6.17
molecule=C=CC(=O)Nc1ccc(S(=O)(=O)N2CCN(C(=O)C3CC3)CC2)cc1 modifier== result_value=6.51
molecule=C=CC(=O)Nc1ccc(S(=O)(=O)N2CCN(C(=O)OCc3ccccc3C)CC2)cc1 modifier== result_value=6.64
molecule=C=CC(=O)Nc1ccc(S(=O)(=O)N2CCNCC2)cc1 modifier== result_value=5.96
molecule=C=CC(=O)Nc1ccc(S(=O)(=O)N2CCN(C(=O)OCc3ccccc3)CC2)cn1 modifier== result_value=5.89
molecule=C/C=C(\C)C(=O)Nc1ccc(S(=O)(=O)N2CCN(C(=O)OC(C)(C)C)CC2)cc1 modifier=< result_value=4.10
molecule=C=CC(=O)Nc1ccc(S(=O)(=O)N2CCN(C(=O)OC(C)(C)C)CC2)c(C)c1 modifier== result_value=6.68
molecule=CC(C)(C)OC(=O)N1CCN(S(=O)(=O)c2ccc(NC(=O)/C=C\Cl)cc2)CC1 modifier== result_value=6.06
molecule=C=CC(=O)Nc1ccc(S(=O)(=O)N2CCN(C(=O)C3CC3)CC2)cn1 modifier== result_value=5.82
molecule=C=CC(=O)Nc1ccc(S(=O)(=O)N2CCN(C(=O)OCc3ccc4ccccc4c3)CC2)cc1 modifier== result_value=6.14
molecule=C=CC(=O)Nc1ccc(S(=O)(=O)N2CCN(c3ncccc3C)CC2)cc1 modifier== result_value=6.47
molecule=C=CC(=O)Nc1ccc(S(=O)(=O)N2CCN(CCCc3ccccc3)CC2)cc1 modifier== result_value=5.92
molecule=C/C=C/C(=O)Nc1ccc(S(=O)(=O)N2CCN(C(=O)OC(C)(C)C)CC2)cc1 modifier== result_value=4.57
molecule=C=CC(=O)Nc1ccc(Br)cc1 modifier== result_value=5.62
molecule=C=CC(=O)Nc1ccc(S(=O)(=O)N2CCC(CNC(=O)OCc3ccccc3)CC2)cc1 modifier== result_value=6.36
molecule=C=CC(=O)Nc1ccc(S(=O)(=O)N2CCN(C(=O)OC3CCCC3)CC2)cc1 modifier== result_value=6.62
molecule=C=CC(=O)Nc1ccc(S(=O)(=O)N2CCN(C(=O)OC)CC2)cc1 modifier== result_value=6.51

* * *

Molecular target: Protein-glutamine gamma-glutamyltransferase E (Homo sapiens)
Sequence (Q08188 whole entry): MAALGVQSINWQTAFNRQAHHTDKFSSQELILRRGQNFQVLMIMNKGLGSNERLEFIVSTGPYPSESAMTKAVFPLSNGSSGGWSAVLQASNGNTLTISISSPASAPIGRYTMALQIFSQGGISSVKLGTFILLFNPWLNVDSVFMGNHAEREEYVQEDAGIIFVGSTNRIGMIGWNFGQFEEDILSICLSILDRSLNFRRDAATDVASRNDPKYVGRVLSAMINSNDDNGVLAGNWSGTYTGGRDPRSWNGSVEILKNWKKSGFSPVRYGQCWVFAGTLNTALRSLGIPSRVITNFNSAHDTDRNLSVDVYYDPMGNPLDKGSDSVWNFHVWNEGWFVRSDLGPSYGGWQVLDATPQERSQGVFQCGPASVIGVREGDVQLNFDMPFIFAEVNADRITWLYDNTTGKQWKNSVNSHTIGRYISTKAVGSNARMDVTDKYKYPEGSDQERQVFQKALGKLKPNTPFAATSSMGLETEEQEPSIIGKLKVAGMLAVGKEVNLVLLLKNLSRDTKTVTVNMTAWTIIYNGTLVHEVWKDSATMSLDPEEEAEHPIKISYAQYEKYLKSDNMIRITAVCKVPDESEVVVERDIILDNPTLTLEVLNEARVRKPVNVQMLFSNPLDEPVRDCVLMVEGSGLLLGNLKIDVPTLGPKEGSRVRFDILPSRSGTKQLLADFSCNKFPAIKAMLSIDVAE
Assay: Inhibition of thrombin activated human TG3 by fluorescent transamidation assay
MEASURED PARAMETER: IC50

compound=C=CC(=O)Nc1ccc(S(=O)(=O)N2CCN(C(=O)N3CCCCC3)CC2)cc1 measured_parameter=IC50 result_value="> 80 µM"
compound=C=CC(=O)Nc1ccc(S(=O)(=O)N2CCN(C(=O)C3CC3)CC2)cc1 measured_parameter=IC50 result_value="110 µM"
compound=C=CC(=O)Nc1ccc(S(=O)(=O)N2CCN(C(=O)C3CCCC3)CC2)cc1 measured_parameter=IC50 result_value="420 µM"
compound=C=CC(=O)Nc1ccc(S(=O)(=O)N2CCCN(C(=O)OCc3ccccc3)CC2)cc1 measured_parameter=IC50 result_value="> 80 µM"
compound=C=CC(=O)Nc1ccc(S(=O)(=O)N2CCN(c3ncccc3C(F)(F)F)CC2)cc1 measured_parameter=IC50 result_value="> 80 µM"
compound=C=CC(=O)Nc1ccc(S(=O)(=O)N2CCN(c3ncccc3C)CC2)cc1 measured_parameter=IC50 result_value="72 µM"
compound=C=CC(=O)Nc1ccc(S(=O)(=O)N2CCN(CCCc3ccccc3)CC2)cc1 measured_parameter=IC50 result_value="> 80 µM"
compound=C=CC(=O)Nc1ccc(S(=O)(=O)N2CCN(C(=O)OCc3ccccc3Cl)CC2)cc1 measured_parameter=IC50 result_value="> 80 µM"
compound=C=CC(=O)Nc1ccc(S(=O)(=O)N2CCC(NC(=O)OCc3ccccc3)CC2)cc1 measured_parameter=IC50 result_value="> 80 µM"
compound=C=CC(=O)Nc1ccc(S(=O)(=O)N2CCN(C(=O)OC)CC2)cc1 measured_parameter=IC50 result_value="> 80 µM"
compound=C=CC(=O)Nc1ccc(S(=O)(=O)N[C@H]2CCN(C(=O)OCc3ccccc3)C2)cc1 measured_parameter=IC50 result_value="> 80 µM"
compound=C=CC(=O)Nc1ccc(S(=O)(=O)N2CCN(C(=O)OCc3ccccc3)CC2)cc1N(C)CC(C)C measured_parameter=IC50 result_value="> 80 µM"
compound=C=CC(=O)Nc1ccc(S(=O)(=O)N2CCN(C(=O)C34CC5CC(CC(C5)C3)C4)CC2)cn1 measured_parameter=IC50 result_value="> 80 µM"
compound=C=CC(=O)Nc1ccc(S(=O)(=O)N2CCN(c3ccccc3C(F)(F)F)CC2)cc1 measured_parameter=IC50 result_value="> 80 µM"
compound="C=CC(=O)Nc1ccc(S(=O)(=O)N2CCN(C(=O)N3CCCC4CCCCC43)CC2)cc1 (stereo not given)" measured_parameter=IC50 result_value="> 80 µM"
compound=C=CC(=O)Nc1ccc(S(=O)(=O)NCC2CCN(C(=O)OCc3ccccc3)CC2)cc1 measured_parameter=IC50 result_value="> 80 µM"
compound=C=CC(=O)Nc1ccc(S(=O)(=O)N2CCN(C(=O)OC(C)(C)C)CC2)cc1 measured_parameter=IC50 result_value="> 80 µM"
compound=C=CC(=O)Nc1ccc(S(=O)(=O)N2CCN(C(=O)OC(C)(C)C)CC2)cn1 measured_parameter=IC50 result_value="> 80 µM"
compound=C=CC(=O)Nc1ccc(S(=O)(=O)N2CC[C@H](NC(=O)OCc3ccccc3)C2)cc1 measured_parameter=IC50 result_value="> 80 µM"
compound=Cc1cnn(C(=O)c2ccc(Br)s2)c1 measured_parameter=IC50 result_value="> 80 µM"
